# credit: PubChem BioAssay AID1209

Molecular target: Mannose-6-phosphate isomerase (Homo sapiens) (UniProt P34949)
Sequence (P34949 whole entry, looked up): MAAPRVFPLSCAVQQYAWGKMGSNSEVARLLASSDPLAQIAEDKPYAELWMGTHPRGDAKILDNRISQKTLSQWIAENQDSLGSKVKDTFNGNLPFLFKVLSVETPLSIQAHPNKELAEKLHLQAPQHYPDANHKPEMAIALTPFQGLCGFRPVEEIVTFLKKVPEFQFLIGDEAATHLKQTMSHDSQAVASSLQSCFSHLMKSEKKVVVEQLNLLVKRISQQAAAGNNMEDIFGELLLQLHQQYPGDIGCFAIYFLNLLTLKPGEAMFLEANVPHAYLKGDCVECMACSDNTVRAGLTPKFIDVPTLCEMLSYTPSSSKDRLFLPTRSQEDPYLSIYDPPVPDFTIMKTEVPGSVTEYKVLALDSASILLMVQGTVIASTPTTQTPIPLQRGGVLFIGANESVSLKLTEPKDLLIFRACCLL
Assay: inhibitors of human PMI, primary screen, biochemical, fluorescence intensity, coupled assay (AID 1209);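 also: plate controls were DMSO vehicle for no effect and wells lacking substrate for full effect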
Conditions: purified PMI enzyme, at 20 µM
Out of some 190,000 compounds screened, about 810 (0.43%) were called active. Rule as the data show it: active = inhibition above about 50%; inactive = the rest. Only a selection was taken, and actives are over-represented in it overall.
Return exactly one item of active, inactive

Example entries and their recorded answers appear below.
molecule | assigned-class
O=c1[nH]c2cc3c(cc2cc1C(c1nnnn1CC1CCCO1)N1CCCC1)OCO3 (configuration not stated) | inactive
N#Cc1ccc(N=c2ssnc2Cl)cc1 | active
CCOc1c(O)ccc(/C=C2\SC(=S)NC2=O)c1[N+](=O)[O-] | active

Data request: What call does the record list for COc1ccc(-c2csc(NC(=O)C3CC(=O)N(c4ccc5c(c4)OCCO5)C3)n2)cc1 (configuration not stated) ?
Data returned: inactive

Data request: Given CC(=O)OCCCNc1cc(Sc2ccc(Cl)cc2)c2nonc2c1[N+](=O)[O-] , state the outcome it received in this test.
Data returned: inactive

Data request: Which result was noted for this molecule in the test: O=C(CCc1ccccc1)Nc1ccc(N2CCOCC2)c(Cl)c1
Data returned: inactive

Data request: Just curious, what result did O=[N+]([O-])c1c(NCCCO)cc(SCc2ccco2)c2nonc12 get here?
Data returned: inactive

Data request: Call for entry CSc1nccc(Oc2cccc(C#N)c2)n1 :
Data returned: inactive

Data request: Dear all, I need the recorded test outcome for COc1ccc(CNc2cc(NCCCO)c([N+](=O)[O-])c3nonc23)cc1 , thank you.
Data returned: active

Data request: Can you look up the reported call for C=CCn1c(SC/C=C/c2ccccc2)nnc1-c1sc(N)nc1C for me?
Data returned: inactive

Data request: Dear colleague, could you share the recorded outcome for CC(C)CC(c1nnnn1CCc1ccccc1)N1CCN(C(=O)c2ccco2)CC1 (configuration not stated) when you have a moment?
Data returned: inactive

Data request: How was Cc1ccc(-c2ccc(/C=N/N=C3/NC(=O)C(CC(=O)O)S3)o2)c([N+](=O)[O-])c1 (configuration not stated) classified in this test?
Data returned: inactive

Data request: For this molecule, state the assay outcome: CCc1ccccc1N(C(=O)Cn1nnc2ccccc21)C(C(=O)NCCOC)c1ccco1 (configuration not stated)
Data returned: inactive

Data request: // return assay outcome for COc1ccc(CC(=O)NCc2ccc3c(c2)cc(C)n3C)cc1OC
Data returned: inactive

Data request: Given O=C(Cn1cc(C(F)(F)F)ccc1=O)N/N=C/c1ccc(F)cc1 , state the outcome it received in this test.
Data returned: inactive

Data request: Returns: the outcome recorded for Cc1cccc(C(=O)Nc2ncc(CN3CCOCC3)s2)c1 in this assay.
Data returned: inactive

Data request: Fill in: this test's call for C=CCOC(=O)C1=C(C)NC(SCC(=O)NC(=O)OCC)=C(C#N)C1c1cccnc1 (configuration not stated) is ___
Data returned: inactive

* * *

Molecular target: Mannose-6-phosphate isomerase (Homo sapiens) (UniProt P34949)
Test: inhibitors of human PMI, primary screen, biochemical, fluorescence intensity, coupled assay (AID 1209)
Details: purified PMI enzyme, at 20 µM
Out of some 190,000 compounds screened, about 810 (0.43%) were called active. No stated cut-off is given here; in the data, active means inhibition above about 50%; inactive means the rest. The entries come from a sample that favours actives as a whole.
I would appreciate it if you answered using one of these outcomes: YES = active, NO = inactive

Illustrative cases are given below, each with its answer.
compound | target-entity | assigned-class
CCCCCNC(=O)c1ccc2c(=O)[nH]c3c(C(=O)NCC4CCCO4)sc(=S)n3c2c1 (stereo not given) | Mannose-6-phosphate isomerase (Homo sapiens) (UniProt P34949) | NO
COc1ccc(C2CC(c3ccccc3)=NN2C(=S)Nc2ccccc2)cc1 (stereo not given) | Mannose-6-phosphate isomerase (Homo sapiens) (UniProt P34949) | NO
O=[N+]([O-])C1=CC=C2C(=NC3(CCCCC3)N2O)C1=NCCc1ccccc1 | Mannose-6-phosphate isomerase (Homo sapiens) (UniProt P34949) | YES
NC1=NC(=O)/C(=C\c2ccc(O)c([N+](=O)[O-])c2)S1 | Mannose-6-phosphate isomerase (Homo sapiens) (UniProt P34949) | NO

Kindly consider the entry below.
Data request: Record request — test call for CCCCN=C1C([N+](=O)[O-])=CC=C2C1=NC1(CCCCC1)N2O
Data returned: NO

* * *

Molecular target: Mannose-6-phosphate isomerase (Homo sapiens) (UniProt P34949)
Experiment: inhibitors of human PMI, primary screen, biochemical, fluorescence intensity, coupled assay (AID 1209);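 also: plate controls were DMSO vehicle for no effect and wells lacking substrate for full effect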
Conditions: purified PMI enzyme, at 20 µM
Among all 190,000 compounds or so, about 810 (0.43%) were called active. Cut-off read from the data, not from the text of the source: active = inhibition above about 50%; inactive = the rest. What follows is part of a selection rich in actives, with near analogues and random picks from the rest.
Your answer must be one of the following: class 1 = active, class 0 = inactive

Example entries begin here.
compound | assigned-class
Cc1ccc(-n2c(SCC(=O)N(C)C3CCS(=O)(=O)C3)nc3ccccc3c2=O)cc1 (configuration not stated) | class 0
CC(=O)c1cnc(-c2ccccc2Cl)s1 | class 0
COc1cc(OC)c(-c2c3cc(O)c(=O)cc-3oc3cc(O)c(O)cc23)cc1OC | class 1
Cc1ccc(-c2nnc(N3CCN(c4ccccn4)CC3)c3ccccc23)cc1 | class 0
CCOc1ccccc1-c1c2cc(O)c(=O)cc-2oc2cc(O)c(O)cc12 | class 0
CCN(C(=O)c1ccnn1C)c1ccccc1 | class 0
COc1ccc(OC)c(-c2oc3ccccc3c(=O)c2O)c1 | class 0
Nc1nnc(SCc2ccccc2F)n1-c1ccccc1 | class 0
Cc1snc(SCC(=O)c2ccc(Cl)cc2)c1C#N | class 1
CCOc1ccc(NC(=NCc2ccc3c(c2)OCO3)SC2CC(=O)N(c3ccccc3)C2=O)cc1 (configuration not stated) | class 0

Data request: Hello, I am checking results. What call was entered for Cc1nnc(SCC(=O)c2ccc([N+](=O)[O-])cc2)s1 ?
Data returned: class 0

Data request: // outcome(item) with item = Cc1ccc(C(=O)CSc2nsc(C)c2C#N)cc1
Data returned: class 0

* * *

Biological target: Mannose-6-phosphate isomerase (Homo sapiens) (UniProt P34949)
Experiment: inhibitors of human PMI, primary screen, biochemical, fluorescence intensity, coupled assay (AID 1209);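 also: plate controls were DMSO vehicle for no effect and wells lacking substrate for full effect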
Details: purified PMI enzyme, at 20 µM, active compounds read high
Screen size: about 190,000 compounds; about 810 (0.43%) were called active. The entries come from a sample that favours actives as a whole.
Classify by measured inhibition: rule met if it is equal to or exceeds 20%, rule not met if it is smaller.

These recorded examples may help you get a feel for the data.
compound | assigned-class
COCc1[nH]nc2c1C(c1ccc(OC)cc1)C(C#N)=C(N)O2 (configuration not stated) | rule met
CN(C)S(=O)(=O)c1cccc(NC(=S)Nc2ccc3cn[nH]c3c2)c1 | rule met
C/C(=N\N=C(N)N)c1cccc(Cl)c1 | rule not met
Cc1nnc(SCC(=O)N2CC(=O)Nc3ccccc32)n1C | rule not met
CS(=O)(=O)N1CCN(C2CCN(Cc3ccccc3)CC2)CC1 | rule not met
Cc1ccc(N/C=C/C(=O)c2sc(-c3ccccc3)nc2C)cc1 | rule not met

Data request: Identify whether the reported inhibition of the following compound is 20% or greater: O=c1[nH]c2ccccc2c(O)c1O
Data returned: rule met

Data request: Quick check, inhibition >= 20%? CCOc1ccccc1-n1c(SCC(=O)NC2CCCC2)nnc1-c1ccoc1C
Data returned: rule not met

Data request: Check this compound for inhibition at or above 20%: COc1ccc(NC(=O)CSc2nc3sc(C)c(C)c3c(=O)n2Cc2ccco2)cc1
Data returned: rule not met

* * *

Listed next: entries and their corresponding inhibition.
Biological target: Mannose-6-phosphate isomerase (Homo sapiens)
Experiment: inhibitors of human PMI, primary screen, biochemical, fluorescence intensity, coupled assay (AID 1209);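 also: plate controls were DMSO vehicle for no effect and wells lacking substrate for full effect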
Settings: purified PMI enzyme, at 20 µM, active compounds read high
Out of some 190,000 compounds screened, about 810 (0.43%) were called active. Only a selection was taken, and actives are over-represented in it overall.
State just the number; it will be interpreted in %.

// worked examples, inhibition included
compound | inhibition [%]
Cc1cccc(NC(=O)C2CCN(S(=O)(=O)c3c(C)nn(C)c3C)CC2)n1 | 8.4
CCOc1ccccc1NC(=O)C1CCN(S(=O)(=O)c2c(C)noc2C)CC1 | 5.5
Cc1cc(NC(=O)CSc2ncnc3ccccc23)no1 | 15.8
O=C(O)CCC(=O)Nc1ccc(Cc2ccc(NC(=O)CCC(=O)O)c(O)c2)cc1O | -9.3

Data request: So what does the record say about inhibition for O=C(Nc1nc(-c2ccccn2)cs1)C1COc2ccccc2O1 (centres undefined) ?
Data returned: -2.1

Data request: Item CSC1=N/C(=C\c2cccc(F)c2)C(=O)S1 has what recorded inhibition?
Data returned: -4.9

Data request: For the compound shown here, CC(Oc1ccccc1)C(=O)N1CCN=C1SCc1ccccc1 (centres undefined) , give the reported inhibition.
Data returned: -6.4

Data request: Could you share which inhibition value was measured for Cc1ccc(Cn2c(C(=O)O)cc3sccc32)cc1 ?
Data returned: -7.2

Data request: Given the entry O=C(Nc1ccccc1OC(F)F)c1ccc(F)cc1 , report its measured inhibition.
Data returned: 109

Data request: Returns the measured inhibition for the input compound. Input: CCOc1ccccc1NC(=O)NCc1cccnc1
Data returned: 0.3
